target: CCDC6-RET (Homo sapiens, UniProt P07949+Q16204+Q96SW2); construct: CCDC6 (natural N-terminal fusion partner, UniProt Q16204); endogenous in cells; host or cells: TPC-1 (parental, papillary thyroid carcinoma); assay: Cellular RET degradation, AlphaLISA, TPC-1 cell line; assay type: cell-based; details: TPC1, human, 24 h, read-out: Cell Density TPC-1/CCDC6-RET Ymax %
Sequence (Q16204+P07949 fused): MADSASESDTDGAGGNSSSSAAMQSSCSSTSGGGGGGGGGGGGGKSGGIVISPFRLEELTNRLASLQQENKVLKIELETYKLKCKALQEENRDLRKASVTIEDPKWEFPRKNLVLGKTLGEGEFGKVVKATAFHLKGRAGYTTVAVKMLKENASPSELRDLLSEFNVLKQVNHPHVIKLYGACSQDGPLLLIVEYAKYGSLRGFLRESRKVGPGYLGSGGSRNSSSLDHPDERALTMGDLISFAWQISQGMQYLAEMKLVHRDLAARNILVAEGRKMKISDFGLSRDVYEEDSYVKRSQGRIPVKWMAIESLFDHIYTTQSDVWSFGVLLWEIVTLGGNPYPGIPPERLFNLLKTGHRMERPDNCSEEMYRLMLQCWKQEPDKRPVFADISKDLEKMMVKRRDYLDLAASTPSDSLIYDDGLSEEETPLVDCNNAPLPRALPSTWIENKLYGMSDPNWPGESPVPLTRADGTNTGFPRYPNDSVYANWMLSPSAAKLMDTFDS
Sequence (Q96SW2 whole entry, the tested form may be a part): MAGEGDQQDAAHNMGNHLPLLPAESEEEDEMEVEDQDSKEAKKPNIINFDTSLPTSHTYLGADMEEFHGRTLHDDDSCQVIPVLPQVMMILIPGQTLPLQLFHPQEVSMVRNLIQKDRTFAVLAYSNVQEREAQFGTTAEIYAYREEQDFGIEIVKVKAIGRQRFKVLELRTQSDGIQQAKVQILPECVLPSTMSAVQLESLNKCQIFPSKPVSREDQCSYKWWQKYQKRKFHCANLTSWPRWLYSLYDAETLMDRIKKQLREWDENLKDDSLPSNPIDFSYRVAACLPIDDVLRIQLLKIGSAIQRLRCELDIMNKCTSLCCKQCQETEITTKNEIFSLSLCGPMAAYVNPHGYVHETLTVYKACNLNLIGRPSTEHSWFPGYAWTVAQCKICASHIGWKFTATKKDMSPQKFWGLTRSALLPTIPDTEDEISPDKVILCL
Sequence (Q16531 whole entry partner, the tested form may be a part): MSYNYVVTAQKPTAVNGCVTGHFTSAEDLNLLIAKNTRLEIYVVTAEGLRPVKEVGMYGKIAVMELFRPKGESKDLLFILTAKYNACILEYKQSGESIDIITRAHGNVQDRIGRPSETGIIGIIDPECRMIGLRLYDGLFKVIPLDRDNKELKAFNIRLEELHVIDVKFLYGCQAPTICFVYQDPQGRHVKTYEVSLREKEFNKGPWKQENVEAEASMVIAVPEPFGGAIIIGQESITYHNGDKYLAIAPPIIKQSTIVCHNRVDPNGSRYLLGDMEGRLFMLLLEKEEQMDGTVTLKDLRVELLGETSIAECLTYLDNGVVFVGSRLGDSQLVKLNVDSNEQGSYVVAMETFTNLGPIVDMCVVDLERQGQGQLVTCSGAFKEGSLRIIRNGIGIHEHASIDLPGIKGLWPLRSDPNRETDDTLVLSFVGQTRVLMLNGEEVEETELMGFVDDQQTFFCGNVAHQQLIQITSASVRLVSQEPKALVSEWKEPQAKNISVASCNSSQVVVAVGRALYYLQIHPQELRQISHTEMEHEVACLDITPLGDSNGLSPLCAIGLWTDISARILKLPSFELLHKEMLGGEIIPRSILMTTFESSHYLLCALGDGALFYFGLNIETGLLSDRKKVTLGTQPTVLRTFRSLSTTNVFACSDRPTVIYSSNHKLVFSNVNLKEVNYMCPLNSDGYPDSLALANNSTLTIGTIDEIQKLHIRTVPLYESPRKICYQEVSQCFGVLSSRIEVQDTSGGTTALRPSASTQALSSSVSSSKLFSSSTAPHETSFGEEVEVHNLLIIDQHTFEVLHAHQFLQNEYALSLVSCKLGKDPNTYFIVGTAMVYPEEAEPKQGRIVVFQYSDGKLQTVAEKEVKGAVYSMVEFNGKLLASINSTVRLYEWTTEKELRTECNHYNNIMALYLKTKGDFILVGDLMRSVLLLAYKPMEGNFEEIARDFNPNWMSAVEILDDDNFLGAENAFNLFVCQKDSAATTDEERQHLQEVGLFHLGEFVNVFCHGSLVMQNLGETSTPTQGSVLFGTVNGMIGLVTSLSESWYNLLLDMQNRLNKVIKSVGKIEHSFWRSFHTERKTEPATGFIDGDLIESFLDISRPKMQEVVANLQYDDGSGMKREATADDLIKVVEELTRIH
assay_metric: Dmax

CCOc1cc(-c2ccc(N3CCC(CN4CCN(C(=O)CCCCCCN5CCN(c6ccc7c(N8CCC(=O)NC8=O)nn(C)c7c6)CC5)CC4)(NC(=O)c4cc(F)ccc4F)CC3)nc2)c2c(C#N)cnn2c1	> 90%
CCOc1cc(-c2ccc(N3CCC(CN4CCN(CCC(=O)N5CCC(c6ccc7c(c6)C(=O)N(C6CCC(=O)NC6=O)C7)CC5)CC4)(NC(=O)c4cc(F)ccc4F)CC3)nc2)c2c(C#N)cnn2c1 (stereo not drawn)	> 90%

Now let's try a different one.
For the compound CCOc1cc(-c2ccc(N3CCC(NC(=O)c4cc(F)ccc4F)(C(=O)NCCCCCCN4CCC(c5ccc6c(c5)CN(C5CCC(=O)NC5=O)C6=O)CC4)CC3)nc2)c2c(C#N)cnn2c1 (stereo not drawn) , report Dmax.
> 90%

====

target: CCDC6-RET (Homo sapiens, UniProt P07949+Q16204+Q96SW2); construct: CCDC6 (natural N-terminal fusion partner, UniProt Q16204); endogenous in cells; host or cells: TPC-1 (parental, papillary thyroid carcinoma); test: Cellular RET degradation, AlphaLISA, TPC-1 cell line; assay type: cell-based; settings: read-out: Cell Density TPC-1/CCDC6-RET DC50; half-maximal degradation concentration; TPC-1 (CCDC6-RET), 24 hrs
# DC50 values compiled below

CCOc1cc(-c2ccc(N3CCC(CN4CCC5(CCC(CC(=O)N6CCN(c7ccc8c(c7)C(=O)N(C7CCC(=O)NC7=O)C8)CC6)CC5)CC4)(NC(=O)c4cc(F)ccc4F)CC3)nc2)c2c(C#N)cnn2c1 (stereo not drawn)	2 to 10 nM
CCOc1cc(-c2ccc(N3CCC(CN4CCN(CC5CCN(C(=O)Cc6cccc7c6CN(C6CCC(=O)NC6=O)C7=O)CC5)CC4)(NC(=O)c4cc(F)ccc4F)CC3)nc2)c2c(C#N)cnn2c1 (stereo not drawn)	2 to 10 nM

For the compound CCOc1cc(-c2ccc(N3CCC(NC(=O)c4cc(F)ccc4F)(C(=O)NCCCCCCNc4cccc5c(N6CCC(=O)NC6=O)nn(C)c45)CC3)nc2)c2c(C#N)cnn2c1 , report DC50.
< 2 nM

====

biological target: CCDC6-RET (Homo sapiens, UniProt P07949+Q16204+Q96SW2); construct: CCDC6 (natural N-terminal fusion partner, UniProt Q16204); endogenous in cells; host or cells: TPC-1 (parental, papillary thyroid carcinoma); assay: Cellular RET degradation, AlphaLISA, TPC-1 cell line; assay type: cell-based; settings: read-out: Cell Density TPC-1/CCDC6-RET DC50; half-maximal degradation concentration; TPC-1 (CCDC6-RET), 24 hrs
# DC50 values compiled below

CCOc1cc(-c2ccc(N3CCC(CN4CCN(C(=O)CCN5CC(c6ccc7c(c6)CN(C6CCC(=O)NC6=O)C7=O)C5)CC4)(NC(=O)c4cc(F)ccc4F)CC3)nc2)c2c(C#N)cnn2c1 (centres unmarked) [Example 119]	2 to 10 nM
CCOc1cc(-c2ccc(N3CCC(NC(=O)c4cc(F)ccc4F)(C(=O)NCCCCCCCCNc4ccc5c(N6CCC(=O)NC6=O)nn(C)c5c4)CC3)nc2)c2c(C#N)cnn2c1 [Example 152]	2 to 10 nM
CCOc1cc(-c2ccc(N3CCC(COCC(=O)NCCCCN4CCN(c5ccc6c(c5)CN(C5CCC(=O)NC5=O)C6=O)CC4)(NC(=O)c4cc(F)ccc4F)CC3)nc2)c2c(C#N)cnn2c1 (centres unmarked) [Example 31]	2 to 10 nM
CCOc1cc(-c2ccc(N3CCC(COCCN4CCN(C(=O)CCN5CCC(c6ccc7c(c6)C(=O)N(C6CCC(=O)NC6=O)C7)CC5)CC4)(NC(=O)c4cc(F)ccc4F)CC3)nc2)c2c(C#N)cnn2c1 (centres unmarked) [Example 32]	10 to 100 nM

Now let's try a different one.
For the compound CCOc1cc(-c2ccc(N3CCC(COCc4cn(CCCN5CCN(c6ccc7c(c6)CN(C6CCC(=O)NC6=O)C7=O)CC5)nn4)(NC(=O)c4cc(F)ccc4F)CC3)nc2)c2c(C#N)cnn2c1 (centres unmarked) [Example 50] , report DC50.
2 to 10 nM
